FYI, the data here is from PubChem BioAssay (NCI).

Measured GI50 of individual entries
system: IGROV1 ovarian; experiment: NCI tumour cell line growth inhibition, 48 h

{"molecule": "O=C(Nc1cccc(-n2cc(-c3ccncc3)c(-c3ccc(O)c(Cl)c3)n2)c1)c1cc(C(F)(F)F)cc(C(F)(F)F)c1", "GI50": "11.2 µM"}
{"molecule": "CCN(CC)CCN1C(=O)C2C3C(=O)CC(C)(CC3C)C2C1=O (stereo not given)", "GI50": "> 100 µM"}
{"molecule": "ClCc1ccc(Cn2cnc3c(Cl)ncnc32)cc1", "GI50": "13.6 µM"}
{"molecule": "Cc1ccc(/C=C/c2c(C(=O)/C=C/c3ccc(Cl)cc3)c(C)nc3ccccc23)cc1", "GI50": "1.03 µM"}
{"molecule": "COc1cc(/C=C/C(=O)/C=C/c2cc3ccc(Cl)cc3n(Cc3ccccc3)c2=O)ccc1O", "GI50": "1.74 µM"}
{"molecule": "COc1ccc2nc(-c3ccccc3)cc(Nc3cccc(C(C)=O)c3)c2c1", "GI50": "20.6 µM"}
{"molecule": "Cc1ccc(NC(=O)Nc2c(Cl)cccc2Cl)cn1", "GI50": "8.14 µM"}
{"molecule": "CCN(CC)CCC(CNc1ccnc2cc(Cl)ccc12)c1ccccc1 (stereo not given)", "GI50": "7.98 µM"}
{"molecule": "CCN(CC)c1ccc2nc3c4ccccc4c(=O)cc-3n(-c3ccccc3)c2c1", "GI50": "0.62 µM"}
{"molecule": "NC1=NC(=O)/C(=C/c2ccc3ncccc3c2)S1", "GI50": "> 25 µM"}

###

Measured TGI of individual entries
system: OVCAR-4 ovarian; experiment: NCI tumour cell line growth inhibition, 48 h

{"compound": "Cn1c2[n+](c3nc(N)[nH]c(=O)c31)C1OC(C2)C(O)C1O (stereo not given)", "TGI": "> 100 µM"}
{"compound": "Nc1ncnc2c1ncn2-c1ccc([N+](=O)[O-])cn1", "TGI": "> 100 µM"}
{"compound": "O=C(N/N=C(/c1nc2ccc([N+](=O)[O-])cc2[nH]c1=O)C(O)c1ccc([N+](=O)[O-])cc1)c1ccncc1 (stereo not given)", "TGI": "> 100 µM"}
{"compound": "CC1CCC(=O)C(C(O)CC2CC(=O)N(c3ccccc3)C(=O)C2)C1 (stereo not given)", "TGI": "> 100 µM"}
{"compound": "CCCCCCCCCCCCCCCCc1c(C(=O)OC)nc(NN)[nH]c1=O", "TGI": "> 50 µM"}
{"compound": "COC(=O)C1(C)CC2C(C)(CCC3(C)C4=CC=C5C(=CC(=O)C(O)=C5C)C4(C)CCC23C)CC1O (stereo not given)", "TGI": "3.4 µM"}
{"compound": "COC(=O)c1cc(NC(=O)c2cc(NC(=O)Cc3c[nH]c4ccccc34)cn2C)cn1C", "TGI": "> 100 µM"}
{"compound": "C#CCNC(=O)NCCCCC(NC(C)=O)C(=O)NCc1ccccc1 (stereo not given)", "TGI": "> 100 µM"}
{"compound": "O=C(/C=C1\\N=C(c2ccccc2)N(c2nc3c(Cl)cc(Cl)cc3s2)C1=O)/C=C/c1ccccc1", "TGI": "> 100 µM"}
{"compound": "Cc1c(-c2ccc(O)cc2)oc(=O)c2ccc(O)cc12", "TGI": "> 100 µM"}

###

tested on: EKVX NSCLC; test: NCI tumour cell line growth inhibition, 48 h
measurement_type: TGI

{"compound": "CCN(CC)c1ccc2nc3c4ccccc4c(=O)cc-3n(-c3ccccc3)c2c1", "endpoint_value": "5.85 µM"}
{"compound": "CCCCOCOc1ccccc1P1(=O)COc2ccccc2OC1", "endpoint_value": "> 100 µM"}
{"compound": "CCOC(=O)/C(C#N)=C1\\SS/C(=C(/C#N)C(=O)OCC)S1", "endpoint_value": "50.4 µM"}
{"compound": "CC1=C(C(=O)NCc2ccccc2)C(c2ccccc2C)C(C(=O)NCc2ccccc2)=C(C)N1", "endpoint_value": "> 100 µM"}
{"compound": "CC1(C(=O)O)C[C@](C)(C(=O)OCc2ccccc2)C[C@](C)(C(=O)OCc2ccccc2)C1 (stereo partly specified)", "endpoint_value": "75.7 µM"}
{"compound": "CCN(CC)CCC1(C2CCCCC2)CCC(=O)NC1=O (stereo unspecified)", "endpoint_value": "> 100 µM"}
{"compound": "O=C(CO[N+](=O)[O-])OC/C=C/c1ccccc1", "endpoint_value": "> 100 µM"}
{"compound": "O=C(O)C1CCCCN1C(=O)Cc1c[nH]c2ccccc12 (stereo unspecified)", "endpoint_value": "> 100 µM"}
{"compound": "COc1cc(C(C[N+](=O)[O-])SC(C)=O)ccc1OCc1ccccc1 (stereo unspecified)", "endpoint_value": "37.9 µM"}
{"compound": "COc1ccccc1/C=C/C1=C(C)CCC(c2ccccc2OC)C1C (stereo unspecified)", "endpoint_value": "> 100 µM"}
{"compound": "Cc1oc(N)c(S(=O)(=O)c2cc3ccccc3n(O)c2=N)c1C", "endpoint_value": "> 100 µM"}
{"compound": "COc1ccc(Cn2cc3c(c2)-c2oncc2CC3)cc1OC", "endpoint_value": "> 33.7 µM"}
{"compound": "Cc1ccc(/C=C/c2c(C(=O)/C=C/c3ccc(Cl)cc3)c(C)nc3ccccc23)cc1", "endpoint_value": "4.53 µM"}
{"compound": "CC12C(=C(C#N)C(=N)N1c1ccc(Cl)c(Cl)c1)C=C(O)CC2SCCS(=O)(=O)O (stereo unspecified)", "endpoint_value": "> 100 µM"}
{"compound": "Cc1n[n+]([O-])c(C)cc1[N+](=O)[O-]", "endpoint_value": "45.4 µM"}
{"compound": "CC(C)CC(NP(=O)(O)OC1OC(C)C(O)C(O)C1O)C(=O)NC(Cc1c[nH]c2ccccc12)C(=O)O (stereo unspecified)", "endpoint_value": "> 100 µM"}
{"compound": "C=C1C(=O)O[C@H]2[C@H]1CC/C(Cn1cc(-c3cccc(Cl)c3)nn1)=C\\CC[C@@]1(C)O[C@@H]21", "endpoint_value": "2.92 µM"}
{"compound": "O=C(O)C(O)C(O)C(O)C(O)C(=O)O (stereo unspecified)", "endpoint_value": "> 100 µM"}
{"compound": "C[N+]1(CCC(=O)c2ccccc2)CCC2CCC(C2)C1 (stereo unspecified)", "endpoint_value": "> 100 µM"}
{"compound": "COc1cccc(C=C2N=C(c3ccccc3)N(n3c(-c4ccccc4)nc4ccccc4c3=O)C2=O)c1", "endpoint_value": "> 100 µM"}
{"compound": "CCOC(=O)CCC(NC(=O)C(N)c1ccc([N+](=O)[O-])cc1)C(=O)NC(CCC(=O)OCC)C(=O)OCC (stereo unspecified)", "endpoint_value": "> 100 µM"}

###

tested on: CCRF-CEM leukemia; assay: NCI tumour cell line growth inhibition, 48 h
Measured TGI of individual entries

{"compound": "CCOC(=O)c1c(-c2cccc(Cl)c2)c(C(=O)OC)c(C)c2sc(C=O)nc12", "TGI": "37 µM"}
{"compound": "Nc1nnnc2nc[nH]c12", "TGI": "> 100 µM"}
{"compound": "CC(C)[Si]1(C(C)C)OCC2OC(n3c(C(=O)c4ccccc4)cc(=O)[nH]c3=O)CC2O[Si](C(C)C)(C(C)C)O1 (stereo not given)", "TGI": "5.12 µM"}
{"compound": "CN=C(N)N=Nc1c(O)[nH]c2ccccc12", "TGI": "> 100 µM"}
{"compound": "COC(=O)C1CC23C4=C(CCC41)CCC1CN4CC(C)C(CC(OC(C)=O)C12COC(C)=O)C43O (stereo not given)", "TGI": "> 100 µM"}
{"compound": "COc1ccc(-c2ccccc2)c2[nH]c3c(c12)CCNC3=O", "TGI": "> 100 µM"}
{"compound": "COc1cc(C2C(C(=O)Nc3ccc([N+](=O)[O-])cc3)=C(C)NC(C)=C2C(=O)Nc2ccc([N+](=O)[O-])cc2)ccc1O", "TGI": "> 100 µM"}
{"compound": "Clc1ccc(Nc2nc(Nc3ccccc3)nc(Nc3ccc(-c4cc(-c5ccc(Cl)cc5)on4)cc3)n2)cc1", "TGI": "> 100 µM"}
{"compound": "C[C@@H](Nc1nc(Nc2ccc(F)c(Cl)c2)nc2c(C3=CCNCC3)cccc12)C1CC1", "TGI": "5.54 µM"}
{"compound": "O/C(=C\\c1nc2ccccc2nc1/C=C(\\O)c1ccc(F)cc1)c1ccc(F)cc1", "TGI": "> 100 µM"}
{"compound": "CC1CCC(=O)C(C(O)CC2CC(=O)N(c3ccccc3)C(=O)C2)C1 (stereo not given)", "TGI": "> 100 µM"}
{"compound": "Nc1ncnc2c1ncn2-c1ccc([N+](=O)[O-])cn1", "TGI": "> 100 µM"}
{"compound": "COc1cc(C(c2cccc3ccccc23)N2C(=O)CCC2C(=O)O)cc(OC)c1OC (stereo not given)", "TGI": "> 100 µM"}
{"compound": "Cc1ccc(-c2nc(N3CCNCC3)c3oc(-c4ccccc4)nc3n2)cc1", "TGI": "4.79 µM"}
{"compound": "C[N+]1(CCC(=O)c2ccccc2)CCC2CCC(C2)C1 (stereo not given)", "TGI": "> 100 µM"}
{"compound": "O=C1C2Cc3c(n(C(=O)c4ccccc4)c4ccccc34)CC2C(=O)N1c1ccc(Nc2ccc(N3C(=O)C4Cc5c(n(C(=O)c6ccccc6)c6ccccc56)CC4C3=O)cc2)cc1 (stereo not given)", "TGI": "> 100 µM"}
{"compound": "C#CCNC(=O)NCCCCC(NC(C)=O)C(=O)NCc1ccccc1 (stereo not given)", "TGI": "> 100 µM"}
{"compound": "CN(C)C(=O)OC1=CC2CCC(C1)N2C (stereo not given)", "TGI": "> 100 µM"}
{"compound": "COc1ccccc1-n1c(NN)nc2ccc(Br)cc2c1=O", "TGI": "> 100 µM"}
{"compound": "O=C(Cn1c(=O)oc2ccc(C(=O)c3ccc(F)cc3)cc21)c1ccccc1", "TGI": "> 100 µM"}
